Where do these numbers come from? They come from ChEMBL document CHEMBL4303087.

- assay.text: in vitro
- experimental.setup: monkey, Vero E6 cells, Selectivity index
Where a name gives a salt, the structure may show the parent alone.
endpoint: selectivity ratio
Give bare numbers.

Please review the following examples before continuing.
| compound | selectivity ratio |
| --- | --- |
| CCN(CC)CCOc1ccc(C(O)(Cc2ccc(Cl)cc2)c2ccc(C)cc2)cc1 (centres undefined) | 3.31 |
| CCN(CC)Cc1cc(Nc2ccnc3cc(Cl)ccc23)ccc1O [AMODIAQUINE HYDROCHLORIDE] | 6.97 |
| OC(c1cc(C(F)(F)F)nc2c(C(F)(F)F)cccc12)C1CCCCN1 (centres undefined) [MEFLOQUINE HYDROCHLORIDE] | 2.3 |
| O=C1NCN(c2ccccc2)C12CCN(CCCC(c1ccc(F)cc1)c1ccc(F)cc1)CC2 | 5.71 |
| CCSc1ccc2c(c1)N(CCCN1CCN(C)CC1)c1ccccc1S2 [THIETHYLPERAZINE MALEATE] | 2.29 |
| CN(C)CCOc1ccc(/C(=C(/CCCl)c2ccccc2)c2ccccc2)cc1 [TOREMIFENE CITRATE] | 1.81 |

Then this compound:
Ask: Recall and state the measured selectivity ratio for CC(C)N1CCN(c2ccc(OCC3COC(Cn4cncn4)(c4ccc(Cl)cc4Cl)O3)cc2)CC1 (centres undefined) .
Reply: 2.57

====

I'd be grateful if you could share measured selectivity ratio for these entries.
- assay.text: in vitro
- experimental.setup: monkey, Vero E6 cells, Selectivity index
Where a name gives a salt, the structure may show the parent alone.
Give bare numbers.

Parameter requested: selectivity ratio. Apply to each item below.
1. O=C1NCN(c2ccccc2)C12CCN(CCCC(c1ccc(F)cc1)c1ccc(F)cc1)CC2
2. CCN(CC)Cc1cc(Nc2ccnc3cc(Cl)ccc23)ccc1O [AMODIAQUINE HYDROCHLORIDE]
3. CC(C)N1CCN(c2ccc(OCC3COC(Cn4cncn4)(c4ccc(Cl)cc4Cl)O3)cc2)CC1 (centres undefined)
4. OC(c1cc(C(F)(F)F)nc2c(C(F)(F)F)cccc12)C1CCCCN1 (centres undefined) [MEFLOQUINE HYDROCHLORIDE]

Reply:
9.61
13.3
3.48
2.61

Parameter requested: selectivity ratio. Apply to each item below.
1. CN(C)CCOc1ccc(/C(=C(/CCCl)c2ccccc2)c2ccccc2)cc1 [TOREMIFENE CITRATE]
2. CCSc1ccc2c(c1)N(CCCN1CCN(C)CC1)c1ccccc1S2 [THIETHYLPERAZINE MALEATE]
3. CCN(CC)CCOc1ccc(C(O)(Cc2ccc(Cl)cc2)c2ccc(C)cc2)cc1 (centres undefined)

Reply:
[4.3, 2.59, 4.53]

====

- System: Vero C1008
- experimental.setup: chlorocebus sabaeus, vero c1008, 72 h
Where a name gives a salt, the structure may show the parent alone.
I'd be grateful if you could share measured CC50 for these entries.

Please review the following examples before continuing.
| compound | CC50 |
| --- | --- |
| Cc1ccc(NC(=O)c2ccc(CN3CCN(C)CC3)cc2)cc1Nc1nccc(-c2cccnc2)n1 [IMATINIB MESYLATE] | > 30.9 µM |
| CC[C@H]1CN2CCc3cc(OC)c(OC)cc3[C@@H]2C[C@@H]1C[C@H]1NCCc2cc(OC)c(OC)cc21 [EMETINE DIHYDROCHLORIDE HYDRATE] | < 0.39 µM |
| CC(CN1c2ccccc2Sc2ccccc21)N(C)C (centres undefined) [PROMETHAZINE HYDROCHLORIDE] | > 42.6 µM |

Then this compound:
Ask: Recall and state the measured CC50 for CCN(CCO)CCCC(C)Nc1ccnc2cc(Cl)ccc12 (centres undefined) [HYDROXYCHLOROQUINE SULFATE] .
Reply: > 50 µM
